Target: GABAA α2β3γ2 (Homo sapiens, UniProt P18507+P28472+P47869)
Construct: expressed in transfected cells; host or cells: HEK293
Sequence (P47869 29-451): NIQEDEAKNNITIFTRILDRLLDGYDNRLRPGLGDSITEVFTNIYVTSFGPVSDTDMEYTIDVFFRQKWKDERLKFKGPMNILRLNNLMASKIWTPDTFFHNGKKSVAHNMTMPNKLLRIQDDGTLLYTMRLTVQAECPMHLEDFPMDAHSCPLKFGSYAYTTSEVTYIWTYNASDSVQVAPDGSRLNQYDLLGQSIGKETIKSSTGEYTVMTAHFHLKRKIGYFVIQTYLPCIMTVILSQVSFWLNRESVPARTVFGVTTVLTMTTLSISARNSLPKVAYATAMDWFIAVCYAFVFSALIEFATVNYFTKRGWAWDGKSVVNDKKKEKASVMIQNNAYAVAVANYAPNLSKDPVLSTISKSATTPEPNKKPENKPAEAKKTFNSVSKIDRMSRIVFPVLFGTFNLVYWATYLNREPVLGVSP
Sequence (P28472 26-473): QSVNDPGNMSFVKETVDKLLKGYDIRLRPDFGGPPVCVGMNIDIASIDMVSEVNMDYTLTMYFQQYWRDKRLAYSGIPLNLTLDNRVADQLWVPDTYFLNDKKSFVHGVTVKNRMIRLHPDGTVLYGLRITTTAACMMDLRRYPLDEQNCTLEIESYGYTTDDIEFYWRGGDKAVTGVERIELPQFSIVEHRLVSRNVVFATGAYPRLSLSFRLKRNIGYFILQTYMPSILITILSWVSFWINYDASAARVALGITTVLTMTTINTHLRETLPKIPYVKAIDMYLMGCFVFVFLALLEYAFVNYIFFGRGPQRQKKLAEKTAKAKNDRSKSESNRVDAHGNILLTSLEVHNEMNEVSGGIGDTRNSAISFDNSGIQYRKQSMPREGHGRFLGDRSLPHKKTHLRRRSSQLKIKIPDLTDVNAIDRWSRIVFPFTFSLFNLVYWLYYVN
Sequence (P18507 40-475): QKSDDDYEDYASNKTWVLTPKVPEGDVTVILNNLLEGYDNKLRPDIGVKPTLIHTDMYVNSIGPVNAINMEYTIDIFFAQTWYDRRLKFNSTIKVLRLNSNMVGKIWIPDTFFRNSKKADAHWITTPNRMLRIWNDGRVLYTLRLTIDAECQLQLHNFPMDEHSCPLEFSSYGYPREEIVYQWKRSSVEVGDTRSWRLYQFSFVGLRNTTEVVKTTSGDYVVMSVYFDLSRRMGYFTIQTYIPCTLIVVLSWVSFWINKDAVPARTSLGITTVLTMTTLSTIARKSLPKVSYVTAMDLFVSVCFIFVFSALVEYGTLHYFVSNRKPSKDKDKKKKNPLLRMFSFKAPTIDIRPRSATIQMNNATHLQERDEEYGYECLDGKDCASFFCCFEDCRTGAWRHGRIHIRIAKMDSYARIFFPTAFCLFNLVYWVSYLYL
Experiment: 35S-TBPS binding assay, HEK293 membranes with GABAA α2β3γ2 construct
Settings: 35S-TBPS 5 nM, GABA 1 μM, 2 hours at room temperature, read-out: α2β3γ2 (35S-TBPS binding, pIC50) (converted)
Description: The binding assay is based on the assay reported by K. Gee et al., Eur. J. Pharmacol. 1987, 136, 419-423. Homogenate preparation: Membrane preparations of HEK293 cells containing either GABAA α1β2γ2 or GABAA α2β3γ2 constructs were performed according to a modified procedure previously described by Gee et al. (supra). […] 35S-TBPS binding assay. […] Measurement of bound radioactivity was performed using a Packard Microplate 96 well topcount scintillation counter. […]
measuredProperty: IC50 (nM)

- Cn1nnnc1C(O)c1c2cccc(-c3ccc(Cl)cc3Cl)c2nn1C (centres unmarked): 398
- COCn1ncnc1C(=O)c1c2cccc(-c3ccc(Cl)cc3Cl)c2nn1C: 1620

(A) Cn1nc2c(-c3ccc(Cl)cc3Cl)cccc2c1Cn1ccnn1
(B) Cn1nc2c(-c3ccc(Cl)cc3Cl)cccc2c1-c1cnco1
Of A and B , whose reported IC50 is the larger number? Lab log: write the label of the selected item as the result.
A
(A: 1200 nM, B: 166 nM)

(P) Cn1nc2c(-c3ccc(Cl)cc3Cl)cccc2c1Cc1nnn(CS(C)(=O)=O)n1
(Q) Cn1nc2c(-c3ccc(Cl)cc3Cl)cccc2c1/C=C/c1nnn[nH]1
(R) Cn1nc2c(-c3ccc(Cl)cc3Cl)cccc2c1Cc1nnnn1CCO
Reorder: IC50, max to min. Returns: the labels listed in the requested order.
R, P, Q

(a) Cn1nc2c(-c3ccc(Cl)cc3Cl)cccc2c1C(=O)c1nnn[nH]1
(b) Cn1nc2c(-c3ccc(Cl)cc3Cl)cccc2c1Cn1cccn1
(c) Cn1nc2c(-c3ccc(Cl)cc3Cl)cccc2c1N1C(=O)CCC1=O
(d) Cn1nc2c(-c3ccc(Cl)cc3Cl)cccc2c1Cn1cncn1
(e) Cn1nc2c(-c3ccc(Cl)cc3Cl)cccc2c1Cc1nnn[nH]1
Reorder: IC50, max to min. Returns: the labels listed in the requested order.
c, d, b, e, a
(c: 3630 nM, d: 603 nM, b: 380 nM, e: 234 nM, a: 110 nM)

(A) Cn1nc2c(-c3ccc(Cl)cc3Cl)cccc2c1Cc1nc[nH]n1
(B) Cn1nc2c(-c3ccc(Cl)cc3Cl)cccc2c1Cn1cnnn1
(C) Cn1nc2c(-c3ccc(Cl)cc3Cl)cccc2c1-c1nnco1
(D) Cn1nc2c(-c3ccc(Cl)cc3Cl)cccc2c1-n1cnnc1
(E) CCOC(c1cnc[nH]1)c1c2cccc(-c3ccc(Cl)cc3Cl)c2nn1C (centres unmarked)
Reorder: IC50, max to min. Returns: the labels listed in the requested order.
D, C, B, E, A
(D: 4070 nM, C: 2820 nM, B: 832 nM, E: 513 nM, A: 355 nM)

(A) Cn1nc2c(-c3ccc(Cl)cc3Cl)cccc2c1C(=O)c1ncn[nH]1
(B) CCOC(=O)c1nccn1Cc1c2cccc(-c3ccc(Cl)cc3Cl)c2nn1C
(C) CCOC(=O)Cc1nnnn1Cc1c2cccc(-c3ccc(Cl)cc3Cl)c2nn1C
Arrange these 3 compounds in increasing order of IC50. Returns: the labels listed in the requested order.
A, B, C
(A: 331 nM, B: 832 nM, C: 2690 nM)

(1) Cn1nc2c(-c3ccc(Cl)cc3Cl)cccc2c1CCc1ncn[nH]1
(2) Cn1nc2c(-c3ccc(Cl)cc3Cl)cccc2c1C1=NCCO1
Which value of IC50 is smaller, the one for 1 or the one for 2 ? Lab log: write the label of the selected item as the result.
1
(1: 309 nM, 2: 468 nM)

(A) Cn1nc2c(-c3ccc(Cl)cc3Cl)cccc2c1Cn1nccn1
(B) Cn1nnc(Cc2c3cccc(-c4ccc(Cl)cc4Cl)c3nn2C)n1
Which value of IC50 is smaller, the one for A or the one for B ? Lab log: write the label of the selected item as the result.
B
(B: 102 nM, A: 427 nM)

(a) Cn1nnc(-c2c3cccc(-c4ccc(Cl)cc4Cl)c3nn2C)n1
(b) Cn1nc2c(-c3ccc(Cl)cc3Cl)cccc2c1CN1CCOC1=O
Of a and b , whose reported IC50 is the larger number? Lab log: write the label of the selected item as the result.
b

Measured values drawn from patent US20070238765A1 for this set.
